Target: Beta-1 adrenergic receptor (Homo sapiens, UniProt P08588)
Sequence (P08588 whole entry): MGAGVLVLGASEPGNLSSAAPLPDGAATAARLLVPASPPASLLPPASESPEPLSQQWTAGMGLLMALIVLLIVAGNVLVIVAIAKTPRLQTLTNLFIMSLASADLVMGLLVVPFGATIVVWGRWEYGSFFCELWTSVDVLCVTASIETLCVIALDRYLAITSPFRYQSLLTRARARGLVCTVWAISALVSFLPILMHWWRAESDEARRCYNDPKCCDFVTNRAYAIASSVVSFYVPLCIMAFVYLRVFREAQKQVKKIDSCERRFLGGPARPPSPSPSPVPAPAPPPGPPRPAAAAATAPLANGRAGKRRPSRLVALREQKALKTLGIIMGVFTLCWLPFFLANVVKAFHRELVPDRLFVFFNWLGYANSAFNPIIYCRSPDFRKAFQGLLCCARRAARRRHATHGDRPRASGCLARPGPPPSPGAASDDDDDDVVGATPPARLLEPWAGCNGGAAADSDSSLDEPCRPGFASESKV
Test: Agonist activity at human adrenergic beta1 receptor expressed in CHO cells assessed as cAMP accumulation
Assay Readout: EC50

[[record]]
item_smiles = "O=c1[nH]cc(O)n1-c1ccc(CCCCOCCCCCCNC[C@H](O)c2ccc(O)c(CO)c2)cc1"
assay_readout = "EC50"
endpoint_result = "79 nM"

